Biological target: PCP receptors
Assay: Radioreceptor assay (3H-TCP displacement, rat brain membranes)
Conditions: read-out: Ki apparent; 1 nM 3H-TCP, whole rat brain membranes, 1 h incubation, Cheng & Prusoff
pKi: −log10 of the molar value. Structures can show the parent of a compound that is named as a salt.
READOUT KIND: pKi

Cc1cc(O)cc(C)c1C[C@H](N)C(=O)N1CCc2ccccc21 [Compound No. 8, monohydrochloride] | 5.84
N[C@@H](Cc1ccc(O)cc1)C(=O)N1CCCc2ccccc21 [Compound No. 1, monohydrochloride] | 5.15
Cc1cc(O)cc(C)c1C[C@H](N)C(=O)N1CCCc2cccc(O)c21 [Compound No. 11, monohydrochloride] | 6.38
c1ccc(C2(N3CCCCC3)CCCCC2)cc1 [PCP, Phencyclidine, reference compound] | 7.02
Cc1cc(O)cc(C)c1C[C@@H](N)C(=O)N1CCCc2ccccc21 [Compound No. 5, monohydrochloride] | 7.00
